experiment: Tmax in rat at 10 mg/kg, po; type: ADME, organism-based; set-up: dose 10 mg/kg, route oral; conditions: in vivo
measuredAttribute: Tmax (min)
Give a bare numeral; the unit min is implied.

Recorded Tmax of `Cc1ccc(-n2nccn2)c(C(=O)N2CCN(c3nc4cc(Cl)ccc4o3)CC[C@H]2C)c1` , please. 30

* * *

experiment: Fraction unbound in rat plasma; format: ADME, cell-free
measuredAttribute: fraction unbound
// no unit, no text: just the number

Recorded fraction unbound of `Cc1ccc(-n2nccn2)c(C(=O)N2CCN(c3ncc4cc(F)ccc4n3)CC[C@H]2C)c1` , please. 0.03

* * *

Parameter: IC50. Scope: all listed entries.
target: Orexin receptor type 2 (Homo sapiens); assay: Antagonist activity at human OX2R expressed in CHO cells assessed as inhibition of orexin-A-induced intracellular calcium mobilization after 5 mins by FLIPR assay
Give a bare numeral; the unit nM is implied.

Here's what some known entries look like.
Cc1ccc(-n2nccn2)c(C(=O)N2CCN(c3nc4ccccc4o3)CC[C@H]2C)c1 ... 57
C[C@@H]1CCN(c2cnc3cc(F)c(F)cc3n2)CCN1C(=O)c1ccccc1-n1nccn1 ... 32
C[C@@H]1CCN(c2ncc3c(n2)CCCC3)CCN1C(=O)c1ccccc1-n1nccn1 ... 28
Cc1ccc(-n2nccn2)c(C(=O)N2CCN(c3ncc4ccccc4n3)CC[C@H]2C)c1 ... 30

As a next step, examine the compound that follows.
Recorded IC50 of `C[C@@H]1CCN(c2ncc3ccccc3n2)CCN1C(=O)c1ccccc1-n1nccn1` , please. 18

* * *

experiment: Drug level in human OX2R overexpressing transgenic rat CSF at 1.34 mg/kg, iv after 30 mins; assay type: ADME, organism-based, Cerebrospinal fluid; parameters: dose 1.34 mg/kg, route intravenous; conditions: read-out: Drug uptake
measuredAttribute: concentration at 0.5 h
A bare number is not enough; add the unit after it.

Recorded concentration at 0.5 h of Cc1ccc(-n2nccn2)c(C(=O)N2CCN(c3nc4cc(Cl)ccc4o3)CC[C@H]2C)c1 [SUVOREXANT] , please. 13 nM

* * *

assay: Cmax in rat at 10 mg/kg, po; type: ADME, organism-based; parameters: dose 10 mg/kg, route oral; conditions: in vivo
measuredAttribute: Cmax (nM)
Give a bare numeral; the unit nM is implied.

Recorded Cmax of Cc1ccc(-n2nccn2)c(C(=O)N2CCN(c3nc4cc(Cl)ccc4o3)CC[C@H]2C)c1 [SUVOREXANT] , please. 480

* * *

test: AUC in dog at 3 mg/kg, po; type: ADME, organism-based, Canis lupus familiaris; design: dose 3 mg/kg, route oral; conditions: plasma
measuredAttribute: AUC (µM·h)
Give a bare numeral; the unit µM·h is implied.

Cc1ccc(-n2nccn2)c(C(=O)N2CCCN(c3ncc4ccccc4n3)CC2)c1 ... 1.81

Recorded AUC of `Cc1ccc(-n2nccn2)c(C(=O)N2CCN(c3nc4cc(Cl)ccc4o3)CC[C@H]2C)c1` , please. 16.9

* * *

test: Oral bioavailability in dog at 3 mg/kg; format: ADME, organism-based, Canis lupus familiaris; details: in vivo
Parameter: bioavailability. Scope: all listed entries.
Give a bare numeral; the unit % is implied.

Here's what some known entries look like.
Cc1ccc(-n2nccn2)c(C(=O)N2CCN(c3nc4cc(Cl)ccc4o3)CC[C@H]2C)c1 ... 56
Cc1ccc(-n2nccn2)c(C(=O)N2CCN(c3ncc4cc(F)ccc4n3)CC[C@H]2C)c1 ... 37

Recorded bioavailability of `C[C@@H]1CCN(c2cnc3cc(F)c(F)cc3n2)CCN1C(=O)c1ccccc1-n1nccn1` , please. 15

* * *

assay: Oral bioavailability in rat at 10 mg/kg; format: ADME, organism-based; conditions: in vivo
measuredAttribute: bioavailability (%)
Give a bare numeral; the unit % is implied.

Cc1ccc(-n2nccn2)c(C(=O)N2CCN(c3ncc4cc(F)ccc4n3)CC[C@H]2C)c1 ... 47

As a next step, examine the molecule that follows.
Recorded bioavailability of Cc1ccc(-n2nccn2)c(C(=O)N2CCN(c3nc4cc(Cl)ccc4o3)CC[C@H]2C)c1 [SUVOREXANT] , please. 19

* * *

test: Cmax in rat at 100 mg/kg, po; assay type: ADME, organism-based; set-up: dose 100 mg/kg, route oral; details: in vivo
measuredAttribute: Cmax (nM)
Give a bare numeral; the unit nM is implied.

Recorded Cmax of `Cc1ccc(-n2nccn2)c(C(=O)N2CCCN(c3ncc4ccccc4n3)CC2)c1` , please. 650

* * *

assay: AUC in rat at 100 mg/kg, po; format: ADME, organism-based; design: dose 100 mg/kg, route oral; conditions: plasma
measuredAttribute: AUC (µM·h)
Give a bare numeral; the unit µM·h is implied.

Recorded AUC of `Cc1ccc(-n2nccn2)c(C(=O)N2CCCN(c3ncc4ccccc4n3)CC2)c1` , please. 1.5

* * *

Molecular target: Orexin/Hypocretin receptor type 1 (Homo sapiens, UniProt O43613)
Sequence (O43613 whole entry): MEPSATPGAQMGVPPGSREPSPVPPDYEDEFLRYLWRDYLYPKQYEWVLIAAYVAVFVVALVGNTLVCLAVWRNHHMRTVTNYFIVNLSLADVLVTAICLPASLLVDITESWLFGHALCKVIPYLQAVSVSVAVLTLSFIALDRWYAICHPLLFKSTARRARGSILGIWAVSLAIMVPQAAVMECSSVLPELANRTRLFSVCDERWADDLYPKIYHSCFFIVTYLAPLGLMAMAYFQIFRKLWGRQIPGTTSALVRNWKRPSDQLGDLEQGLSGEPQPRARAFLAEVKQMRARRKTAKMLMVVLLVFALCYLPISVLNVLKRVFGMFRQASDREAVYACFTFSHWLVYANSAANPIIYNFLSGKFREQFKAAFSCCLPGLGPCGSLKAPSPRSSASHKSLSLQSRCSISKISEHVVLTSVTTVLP
Assay: Displacement of [3H]N-cyclobutyl-5-methyl-N-(2-(1-methyl-1H-benzo[d]imidazol-2-ylthio)ethyl)-2-(2H-1,2,3-triazol-2-yl)benzamide from human OX1R expressed in CHO cells after 20 hrs by scintillation counting
Assay type: cell-based
pKi: −log10 of the molar value.
Binary classification by pKi, with 8 as an inclusive lower bound for yes (1); all other cases are no (0).

Previously resolved entries follow.
C[C@H]1CCN(c2ncc3ccccc3n2)CCN1C(=O)c1ccccc1-n1nccn1 ... no (0)
Cc1ccc(-n2nccn2)c(C(=O)N2CCN(c3ncc4ccccc4n3)CC[C@H]2C)c1 ... yes (1)
C[C@@H]1CCN(c2ncc3c(n2)CCCC3)CCN1C(=O)c1ccccc1-n1nccn1 ... yes (1)

Test whether the compound `C[C@@H]1CCN(c2cnc3cc(F)c(F)cc3n2)CCN1C(=O)c1ccccc1-n1nccn1` records pKi of 8 or higher. yes (1)

Then `Cc1ccc(-n2nccn2)c(C(=O)N2CCN(c3nc4ccccc4o3)CC[C@H]2C)c1` ? yes (1)

* * *

experiment: Tmax in dog at 3 mg/kg, po; format: ADME, organism-based, Canis lupus familiaris; parameters: dose 3 mg/kg, route oral; settings: in vivo
measuredAttribute: Tmax (min)
Give a bare numeral; the unit min is implied.

Recorded Tmax of Cc1ccc(-n2nccn2)c(C(=O)N2CCN(c3nc4cc(Cl)ccc4o3)CC[C@H]2C)c1 [SUVOREXANT] , please. 30

* * *

molecular target: Orexin receptor type 2 (Homo sapiens, UniProt O43614); experiment: Displacement of [3H](S)-N-(2-(1H-pyrrol-1-yl)phenyl)-1-(2-(1-methyl-1H-benzo[d]imidazol-2-ylthio)acetyl)pyrrolidine-2-carboxamide from human OX2R expressed in CHO cells after 3 hrs by scintillation counting; format: cell-based
Sequence (O43614 whole entry): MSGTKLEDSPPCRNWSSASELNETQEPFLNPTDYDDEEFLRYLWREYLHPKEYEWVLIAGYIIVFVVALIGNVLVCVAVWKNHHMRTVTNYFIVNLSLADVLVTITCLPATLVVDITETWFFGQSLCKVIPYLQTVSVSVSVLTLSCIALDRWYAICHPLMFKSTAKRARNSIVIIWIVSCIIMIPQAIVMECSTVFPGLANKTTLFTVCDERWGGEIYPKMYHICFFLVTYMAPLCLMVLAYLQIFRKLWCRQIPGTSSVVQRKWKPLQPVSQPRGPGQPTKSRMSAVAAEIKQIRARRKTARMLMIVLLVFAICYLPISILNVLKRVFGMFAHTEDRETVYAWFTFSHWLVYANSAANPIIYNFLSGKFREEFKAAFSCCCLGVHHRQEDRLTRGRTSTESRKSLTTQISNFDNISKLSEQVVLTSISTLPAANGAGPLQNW
Parameter: pKi. Scope: all listed entries.
Please express pKi as -log10 of the molar concentration.

C[C@@H]1CCN(c2ncc3ccccc3n2)CCN1C(=O)c1ccccc1-n1nccn1 ... 9.33
C[C@H]1CCN(c2ncc3ccccc3n2)CCN1C(=O)c1ccccc1-n1nccn1 ... 8.07

Recorded pKi of `Cc1ccc(-n2nccn2)c(C(=O)N2CCN(c3nc4ccccc4o3)CC[C@H]2C)c1` , please. 8.49

* * *

experiment: Drug level in human OX2R overexpressing transgenic rat plasma at 1.34 mg/kg, iv after 30 mins; assay type: ADME, organism-based; set-up: dose 1.34 mg/kg, route intravenous; details: read-out: Drug uptake
measuredAttribute: concentration at 0.5 h (nM)
Give a bare numeral; the unit nM is implied.

Recorded concentration at 0.5 h of `Cc1ccc(-n2nccn2)c(C(=O)N2CCN(c3nc4cc(Cl)ccc4o3)CC[C@H]2C)c1` , please. 1070

* * *

target: Orexin/Hypocretin receptor type 1 (Homo sapiens); assay: Displacement of [3H](S)-N-(biphenyl-2-yl)-1-(2-(1-methyl-1H-benzo[d]imidazol-2-ylthio)acetyl)pyrrolidine-2-carboxamide from human OX1R expressed in CHO cells after 3 hrs by scintillation counting; type: cell-based
measuredAttribute: Ki (nM)
Give a bare numeral; the unit nM is implied.

Recorded Ki of `Cc1ccc(-n2nccn2)c(C(=O)N2CCN(c3ncc4ccccc4n3)CC[C@H]2C)c1` , please. 0.39

Then `C[C@@H]1CCN(c2ncc3ccccc3n2)CCN1C(=O)c1ccccc1-n1nccn1` ? 6.2

Then `C[C@@H]1CCN(c2ncc3c(n2)CCCC3)CCN1C(=O)c1ccccc1-n1nccn1` ? 0.78
